- test_system: L-lactate dehydrogenase (Plasmodium falciparum (isolate CDC / Honduras)) (UniProt Q27743)
- Sequence (Q27743 whole entry, looked up): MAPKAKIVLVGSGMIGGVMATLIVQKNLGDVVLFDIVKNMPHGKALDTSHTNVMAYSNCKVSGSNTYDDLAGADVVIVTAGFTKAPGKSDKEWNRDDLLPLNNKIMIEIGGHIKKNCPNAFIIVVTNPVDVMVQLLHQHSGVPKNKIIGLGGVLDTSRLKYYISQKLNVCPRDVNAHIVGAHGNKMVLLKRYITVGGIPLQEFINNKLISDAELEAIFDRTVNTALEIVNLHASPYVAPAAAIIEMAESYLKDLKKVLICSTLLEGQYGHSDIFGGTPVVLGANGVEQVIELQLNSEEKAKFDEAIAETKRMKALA
- measurement_protocol: PfLDH activity inhibition – cell lysate, 3D7 strain, counter-screen for P. falciparum growth inhibition project (AID 2304);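 further: 0% = vehicle and 100% = reference inhibitor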
- test_conditions: P. falciparum 3D7 crude extract, LDH APAD/NBT absorbance; at 2 µM; active compounds read high
Measured inhibition by item
Return type: number; implicit unit %.

The examples below pair each entry with its known result.
Cn1nccc1C(=O)NCCNCc1ccc(-c2cccc(-c3nc4ccccc4[nH]3)c2)cc1: 2
COc1ccc(CCc2ccc(-c3c(C)[nH]c(C)c(Cl)c3=O)cc2)cc1: 3
Cc1[nH]c(C)c(-c2ccc(-c3cccc(C(F)(F)F)c3)nc2)c(=O)c1Br: -4

(Q) Recall and state the measured inhibition for Cc1cc(N2CCOCC2)nc(Nc2ccc(NC(=O)Nc3ccc(F)cc3)cc2)n1 .
(A) -2

(Q) Recall and state the measured inhibition for CCC(C)(C)c1ccc(N2C(N)=NC(N)=NC2(C)C)cc1 .
(A) -1

(Q) Recall and state the measured inhibition for COc1cccc(-c2nn(C)c3sc(C(=O)NCCN(C)Cc4ccccc4)cc23)c1 .
(A) -3

(Q) Recall and state the measured inhibition for COc1ccc(Nc2nc(NCc3ccco3)c3ccccc3n2)cc1 .
(A) -4

---

Measured growth inhibition by item
- measurement_protocol: inhibition of 3D7 malaria parasite growth – strain 3D7 (AID 2306);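 further: 0% = DMSO wells and 100% = chloroquine plus artemisinin control wells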
- test_conditions: P. falciparum 3D7 erythrocytic growth, LDH absorbance, 72 h; at 2 µM; active compounds read high
Return type: number; implicit unit %.

(Q) Recall and state the measured growth inhibition for Cc1ccc(NC(=O)Nc2ccc(Cn3ncc(N4CCCNCC4)c(Cl)c3=O)cc2)cc1 .
(A) 84

(Q) Recall and state the measured growth inhibition for CS(=O)(=O)CCNCc1cccc(-c2cc3c(Nc4ccc5c(cnn5Cc5ccccc5)c4)ncnc3s2)c1 .
(A) 101

(Q) Recall and state the measured growth inhibition for Cc1ccc(O)cc1Nc1ccnc2cc(-c3csc(CN(C)CCN(C)C)n3)ccc12 .
(A) 101

(Q) Recall and state the measured growth inhibition for O=C(Nc1ccncc1)c1cc(C(=O)Nc2ccncc2)cc([N+](=O)[O-])c1 .
(A) 100

(Q) Recall and state the measured growth inhibition for Cc1cccc(NC(=O)c2cnc(N3CCN(c4ccncc4)CC3)c(Cl)c2)c1 .
(A) 100

---

Measured inhibition by item
- test_system: L-lactate dehydrogenase (Plasmodium falciparum (isolate CDC / Honduras))
- measurement_protocol: PfLDH activity inhibition – cell lysate, 3D7 strain, counter-screen for P. falciparum growth inhibition project (AID 2304);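 further: 0% = vehicle and 100% = reference inhibitor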
- test_conditions: P. falciparum 3D7 crude extract, LDH APAD/NBT absorbance; at 2 µM; active compounds read high
Return type: number; implicit unit %.

CCCCCC1c2[nH]c3ccccc3c2CCN1C(=O)OCc1ccccc1 (stereo not drawn): -3
Cc1cc(C(F)(F)F)n2nc(C(=O)N(Cc3cncn3Cc3cccc(F)c3)CC3CC3)cc2n1: 3
O=C(Nc1ccc(-c2cccc(-c3nc4ccc(F)cc4[nH]3)c2)cc1)Nc1ccc(F)c(F)c1F: 3
COc1cc2c(cc1N1C[C@@H](C)N[C@@H](C)C1)N(C(=O)c1ccc(-c3ccc(-c4ncc[nH]4)cc3C)cc1)CC2: -2
CNc1ccc(CNCc2ccc(-c3ccc(-c4nc5ccc(C(F)(F)F)cc5[nH]4)s3)cc2)cc1: -2

(Q) Recall and state the measured inhibition for COc1cc(NC(=O)c2sc(-c3ccc(Cl)cc3)cc2NC(=O)c2ccncc2)ccc1OCCN1CCCC1 .
(A) 3

(Q) Recall and state the measured inhibition for CCCN(CCC)CCCOc1ccc(C(=O)c2c(-c3ccc(OCCCN(CCC)CCC)cc3)oc3ccc(Cl)cc23)cc1 .
(A) -8

(Q) Recall and state the measured inhibition for O=C(NCCCCN1CCC(c2ccc3c(c2OCCN2CCCC2=O)CCCC3)CC1)c1ccc(-c2ccc(C(F)(F)F)cc2)cc1 .
(A) 1

---

- measurement_protocol: antimalarial activity against Dd2 strain (AID 2302);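 further: 0% = DMSO untreated growth and 100% = chloroquine plus artemisinin killed control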
- test_conditions: P. falciparum Dd2 in RBCs, LDH growth readout, 72 h; at 2 µM
The source made the active and inactive calls.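 Rule for the calls: active = growth inhibition above 50% at the single 2 µM test dose, taken to imply half-maximal potency below 2 µM; inactive = the rest.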
Just give me one of these, please: active, inactive

These solved cases illustrate the format of a correct answer.
CCOc1ccnc(=O)[nH]1: active
CC(C)(C)C1CC(=O)C[C@@H]2C(=O)N(C3CCCCC3)C(=O)[C@H]12 (stereo not given in full): inactive
CCCCCCCc1c(C)[nH]c2ccccc2c1=O: active
Cc1cccc(OCCCCON2C(N)=NC(N)=NC2(C)C)c1C: active
O=C(Nc1cccc(-c2ccc(-c3nc4ccc(C(F)(F)F)cc4[nH]3)cc2)c1)Nc1ccc(F)c(F)c1F: active

(Q) State the result this test recorded for Cc1nnsc1C(=O)Nc1cccc(-c2ccc(-c3nc4ccc(F)cc4[nH]3)s2)c1 .
(A) inactive

---

- test_system: L-lactate dehydrogenase (Plasmodium falciparum (isolate CDC / Honduras))
- measurement_protocol: PfLDH activity inhibition – cell lysate, 3D7 strain, counter-screen for P. falciparum growth inhibition project (AID 2304);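 further: 0% = vehicle and 100% = reference inhibitor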
- test_conditions: P. falciparum 3D7 crude extract, LDH APAD/NBT absorbance; at 2 µM; active compounds read high
experimental_endpoint: inhibition (%)
Return type: number; implicit unit %.

(Q) Recall and state the measured inhibition for CC(C)CCN(Cc1cncn1Cc1ccccc1F)C(=O)c1cncc(-c2ccccc2)c1 .
(A) -5

(Q) Recall and state the measured inhibition for CCCN(CC1CC1)c1nc(C)nc2c(-c3ccccc3)cc(C)cc12 .
(A) 1

---

- test_system: L-lactate dehydrogenase (Plasmodium falciparum (isolate CDC / Honduras))
- measurement_protocol: PfLDH activity inhibition – cell lysate, 3D7 strain, counter-screen for P. falciparum growth inhibition project (AID 2304);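 further: 0% = vehicle and 100% = reference inhibitor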
- test_conditions: P. falciparum 3D7 crude extract, LDH APAD/NBT absorbance; at 2 µM; active compounds read high
Measured inhibition by item
Return type: number; implicit unit %.

The examples below pair each entry with its known result.
Cc1cccc(OCC(=O)Nc2cccc(NC(=O)COc3cccc(C)c3)n2)c1: 0
COc1ccc2ncc(F)c(CCN3CCC(NCc4cc(C)c5c(c4)OCCO5)CC3)c2n1: 0
Fc1ccc2nc(-c3ccc(-c4ccc(CN5CCC(CCN6CCCCC6)CC5)cc4)cc3)[nH]c2c1: -9
Cc1cccc2[nH]c(-c3ccc(-c4cccc(CNCCc5ccncc5)c4)s3)nc12: 2
O=C(Nc1cccc(-c2nn3ccccc3c2-c2ccnc(Nc3cccc(F)c3)n2)c1)c1c(F)ccc(F)c1F: -1

(Q) Tell me inhibition of COC(=O)c1ccc(CCC(C)NCC(O)c2cccc(C(F)(F)F)c2)cc1 (centres undefined) when tested on L-lactate dehydrogenase (Plasmodium falciparum (isolate CDC / Honduras)).
(A) -7

(Q) Tell me inhibition of N#Cc1ccc2c(c1)CN(CCC1CCC(NC(=O)c3cc4ccccc4cc3N)CC1)CC2 (centres undefined) when tested on L-lactate dehydrogenase (Plasmodium falciparum (isolate CDC / Honduras)).
(A) -8

(Q) Tell me inhibition of CN(C)Cc1ccc(-c2ccc(NC(=O)c3ccc4c(=O)n(Cc5ccoc5)cnc4c3)cc2)cc1 when tested on L-lactate dehydrogenase (Plasmodium falciparum (isolate CDC / Honduras)).
(A) 3

(Q) Tell me inhibition of Cc1cc(-c2cccc(CNCc3ccc(F)cc3)c2)ccc1S(=O)(=O)NCCN1CCCC1 when tested on L-lactate dehydrogenase (Plasmodium falciparum (isolate CDC / Honduras)).
(A) 4

---

- test_system: Calcium-dependent protein kinase 4 (Plasmodium falciparum (isolate 3D7)) (UniProt Q8IBS5)
- Sequence (Q8IBS5 whole entry, looked up): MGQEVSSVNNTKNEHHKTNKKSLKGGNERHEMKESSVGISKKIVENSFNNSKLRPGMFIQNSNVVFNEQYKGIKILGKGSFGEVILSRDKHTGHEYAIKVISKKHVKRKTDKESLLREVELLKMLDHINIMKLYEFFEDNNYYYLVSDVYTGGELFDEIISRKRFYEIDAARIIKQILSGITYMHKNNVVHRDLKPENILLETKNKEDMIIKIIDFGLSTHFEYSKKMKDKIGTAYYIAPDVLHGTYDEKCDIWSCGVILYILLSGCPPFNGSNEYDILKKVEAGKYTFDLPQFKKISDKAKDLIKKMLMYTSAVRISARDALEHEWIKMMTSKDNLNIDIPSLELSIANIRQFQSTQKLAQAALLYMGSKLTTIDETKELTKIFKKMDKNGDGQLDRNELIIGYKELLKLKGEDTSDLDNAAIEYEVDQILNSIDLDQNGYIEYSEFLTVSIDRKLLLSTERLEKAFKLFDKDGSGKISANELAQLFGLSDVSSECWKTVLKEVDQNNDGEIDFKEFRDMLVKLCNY
- measurement_protocol: PfCDPK4 kinase inhibitors, biochemical, TCAMS library (AID 1159588)
- test_conditions: recombinant PfCDPK4, Kinase-Glo ATP depletion luminescence
Measured potencies and affinities stand elsewhere. Active and inactive are the calls of the source. The limit is not given here; nearly all actives have IC50 up to about 0.91 µM.
experimental_endpoint: outcome

The examples below pair each entry with its known result.
O=C(NC1CCC(N2CCC(c3nc4ccccc4s3)CC2)CC1)c1cc2ccccc2[nH]1 (centres undefined): inactive
CCOc1c(CNCCCNc2cc(=O)c3ccccc3[nH]2)cc(Br)cc1OC: inactive
CCN(CC)CCN(Cc1ccc(-c2ccc(C(F)(F)F)cc2)cc1)C(=O)Cn1c(SCc2ccc(F)c(F)c2F)nc(=O)c2c1CCC2: inactive
CCC(CO)NCC(O)Cn1c2ccc(Cl)cc2c2cc(Cl)ccc21 (centres undefined): inactive

(Q) Recall and state the measured outcome for O=C1C(=Cc2cc(Cc3ccccc3)ccc2O)SC(=S)N1Cc1ccccc1 .
(A) inactive

(Q) Recall and state the measured outcome for c1ccc(-n2ncc(CNCc3ccc(-c4ccc(-c5nc6ccccc6[nH]5)s4)cc3)n2)cc1 .
(A) inactive

(Q) Recall and state the measured outcome for COc1ccc(F)cc1-c1ccc(C(=O)N2CCCN(c3ccc(C#N)cn3)CC2)cc1 .
(A) inactive

(Q) Recall and state the measured outcome for CC(=O)c1cccc2[nH]c(C(=O)NC3CCC(CCN4CCc5ccc(C#N)cc5C4)CC3)cc12 (centres undefined) .
(A) inactive

(Q) Recall and state the measured outcome for Cc1ccc(C2(CN3CCC(NC(=O)c4[nH]ncc4Cl)CC3)CCCCC2)cc1 .
(A) inactive
